Origin of measurements: the RNAGym collection of RNA variant scans (doi:10.1126/science.aae0568)

B1: tRNA (parent)
chain: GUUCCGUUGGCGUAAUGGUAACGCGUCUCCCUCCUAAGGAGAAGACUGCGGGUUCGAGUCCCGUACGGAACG

Variants of: B1
Assay: yeast fitness relative to wild type (ratio to wild type); higher = fitter; tRNA-Arg(CCU), competitive growth, 37 C, YPD
This sample holds only a part of the variants without activity.
recordedEndpoint: yeast fitness
Enter a number only.

# example entries with known answers
mutationName | yeast fitness
G6C U16A G23C C60U | 0.625
G44C A57U | 0.554
C24A A36C | 0.531
C27A A65G C66U | 0.772
G56A C61U | 0.994

Looking up G6A C61A G67A , I see its yeast fitness listed as 0.547

Looking up C34U C62U , I found its yeast fitness recorded as 0.673
